Origin of values: PubChem BioAssay AID1508600

assay: Components of the Cytosolic LPS Sensing Pathway: Gene Identification via Genome-wide siRNA Screen; conditions: RAW264.7 macrophages, IL-1a HTRF, actives lie on both sides, screened at 100 nM (by protocol), cells primed 5 h with Pam3CSK4 first
The campaign covered roughly 53,000 sequences. About 3,700 (7%) were called active.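 The calls were made as follows: active = gene knockdowns whose robust z-score for IL-1 alpha signal is at least 2 or at most -2, so actives lie on both sides; inactive = the rest.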 The sample as a whole holds a higher share of actives than the screen did.
Can you answer with just one of these options? active, inactive

[[record]]
chain = "GGUGUUUGUGAAGGAGCAGTT against Fam117a"
assigned_label = "active"

[[record]]
chain = "GGUAAACAUGUCUAUGACUTT against Fpr-rs7"
assigned_label = "active"

[[record]]
chain = "GGUUAAACUUGGUGAAUUATT against Kcnj16"
assigned_label = "inactive"


Exercise: I would be grateful if you could indicate the recorded call for GGCACUGGCAGGAAAUUACTT against Alg6 .
Solution: inactive

Exercise: I would be grateful if you could indicate the recorded call for GGAAGAGAAACGACAAAAUTT against Olfr293 .
Solution: inactive

Exercise: I would be grateful if you could indicate the recorded call for CGGACUUGAGAGCAGAACCTT against Oit1 .
Solution: active

Exercise: I would be grateful if you could indicate the recorded call for GGUUUGACUAACUUUCCUUTT against Fbxl15 .
Solution: inactive

Exercise: I would be grateful if you could indicate the recorded call for GGUAUUUAAGUGAUACAUCTT against Ddost .
Solution: inactive

====

assay: Components of the Cytosolic LPS Sensing Pathway: Gene Identification via Genome-wide siRNA Screen; details: RAW264.7 macrophages, IL-1a HTRF, actives lie on both sides, screened at 100 nM (by protocol), cells primed 5 h with Pam3CSK4 first
Screen size: about 53,000 sequences; about 3,700 (7%) were called active. The full list was thinned out, with actives kept by preference.
Quick rule for you: z-score at -0.2 or higher means rule met, lower means rule not met.

Worked examples, 10 sequences total:
[[record]]
chain = "GGUUUGCCUGUGCUGAUAUTT against Olfr549"
assigned_label = "rule not met"

[[record]]
chain = "GGUUUUGAGAAGAUAACUCTT against Zfp236"
assigned_label = "rule met"

[[record]]
chain = "GCCACGUUCAAACAGUACCTT against Slc1a7"
assigned_label = "rule met"

[[record]]
chain = "GGAAGGGACUGAUCGGUACTT against Igsf8"
assigned_label = "rule met"

[[record]]
chain = "GGACAGCUGGACCUAAAGGTT against Slco4a1"
assigned_label = "rule not met"

[[record]]
chain = "GGUUCCUGGGAACCUAAGUTT against Med25"
assigned_label = "rule met"

[[record]]
chain = "GGCCUACAUUUUAAUUCAGTT against Tmem132c"
assigned_label = "rule met"

[[record]]
chain = "GGUCAGUAUCAGAAUGAUCTT against Rft1"
assigned_label = "rule not met"

[[record]]
chain = "CCAGCUAGUGAUGUCAAAATT against Bri3bp"
assigned_label = "rule met"

[[record]]
chain = "GGGAGCUAGCAAAAUCGGATT against Eif4g3"
assigned_label = "rule met"


Exercise: Given GGCUUAAAUGCGUUCUACATT against Slc25a3 , state whether its z-score is at least -0.2.
Solution: rule met

Exercise: Given CCCAUCAAAAGAAUCCACATT against Snrnp70 , state whether its z-score is at least -0.2.
Solution: rule not met

====

assay: Components of the Cytosolic LPS Sensing Pathway: Gene Identification via Genome-wide siRNA Screen; settings: RAW264.7 macrophages, IL-1a HTRF, actives lie on both sides, screened at 100 nM (by protocol), cells primed 5 h with Pam3CSK4 first;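 also: robust z of the log signal after scaling to non-targeting control siRNA wells of the plate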
Out of some 53,000 sequences screened, about 3,700 (7%) were called active.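 How the source made its calls: active means gene knockdowns whose robust z-score for IL-1 alpha signal is at least 2 or at most -2, so actives lie on both sides; inactive means the rest.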 The full list was thinned out, with actives kept by preference.
Can you answer with just one of these options? active, inactive

Worked examples, 3 sequences total:
[[record]]
chain = "CCGACGGAUAGCUUGGAUGTT against Fgb"
assigned_label = "inactive"

[[record]]
chain = "CCGUGUUCCGAGGAUAUGUTT against Cyp2e1"
assigned_label = "inactive"

[[record]]
chain = "CUGUAAGGCGGAUAAGACCTT against Pantr1"
assigned_label = "inactive"


Exercise: I would be grateful if you could indicate the recorded call for CCAAGCAUAUGUGGUUGUUTT against Gpbp1l1 .
Solution: active

Exercise: I would be grateful if you could indicate the recorded call for GGCCAUGAUUUACGACGACTT against C1qtnf4 .
Solution: inactive

Exercise: I would be grateful if you could indicate the recorded call for GCGGCCUUCGAAGAUAUUCTT against Pnliprp2 .
Solution: inactive

Exercise: I would be grateful if you could indicate the recorded call for GCCAAUCUGAACUUGUGUUTT against Plet1 .
Solution: inactive

Exercise: I would be grateful if you could indicate the recorded call for GGAGAUAACACCGUUACUUTT against Olfr769 .
Solution: inactive

Exercise: I would be grateful if you could indicate the recorded call for UGAAGCUGUCCCGGACUAATT against Shf .
Solution: inactive

Exercise: I would be grateful if you could indicate the recorded call for GCAAGCAGACUUGUCCUUCTT against Hnrnpc .
Solution: inactive

Exercise: I would be grateful if you could indicate the recorded call for GGCCAGCAGACUAUUUAUUTT against Derl1 .
Solution: inactive

Exercise: I would be grateful if you could indicate the recorded call for GGGAUACCCGGCGUAAUCUTT against Col4a2 .
Solution: inactive

====

Assay: Components of the Cytosolic LPS Sensing Pathway: Gene Identification via Genome-wide siRNA Screen;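 also: robust z of the log signal after scaling to non-targeting control siRNA wells of the plate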
Settings: RAW264.7 macrophages, IL-1a HTRF, actives lie on both sides, screened at 100 nM (by protocol), cells primed 5 h with Pam3CSK4 first
Description: Non-canonical inflammasome activation by cytosolic LPS is a critical component of the host response to Gram-negative bacterial infection, however we lack a comprehensive understanding of the cellular processes that control this pathway. […] Lipofectamine RNAiMAX Transfection Reagent ([…]; Invitrogen) was added in […] serum-free, antibiotic-free media to plate wells using a Thermo Scientific Matrix WellMate and Microplate Stacker. […] The plates were read on an EnVision plate reader (PerkinElmer). […]
In all, about 53,000 sequences went through this assay and about 3,700 (7%) were called active. This excerpt belongs to a sample that is enriched for actives.
Quick rule for you: z-score at -0.4 or higher means 1 (yes), lower means 0 (no).

Exercise: Given GCUUGAAUAUGAGAACGAATT against Deup1 , state whether its z-score is at least -0.4.
Solution: 0 (no)

Exercise: Given GGAACUUGACAAAGUCUACTT against Panx1 , state whether its z-score is at least -0.4.
Solution: 1 (yes)

====

test: Components of the Cytosolic LPS Sensing Pathway: Gene Identification via Genome-wide siRNA Screen; details: RAW264.7 macrophages, IL-1a HTRF, actives lie on both sides, screened at 100 nM (by protocol), cells primed 5 h with Pam3CSK4 first;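 also: robust z of the log signal after scaling to non-targeting control siRNA wells of the plate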
Screen size: about 53,000 sequences; about 3,700 (7%) were called active. Shown is part of a subset that was picked to be rich in actives.
# label = bin(measured z-score), where bins are lower level (below -0.8), middle level (-0.8 to below 0.2), upper level (0.2 or more)

Worked examples, 3 sequences total:
[[record]]
chain = "GGCAUCUGUUACCCAGAAUTT against Zfp384"
assigned_label = "lower level"

[[record]]
chain = "GGAUAACUAUAUUCCAGUGTT against Rhobtb3"
assigned_label = "upper level"

[[record]]
chain = "CGGUUCCAACCUUGAAAAATT against H1f10"
assigned_label = "middle level"


Exercise: Tag the class for GGAGCCUCCAAGUUGUAAGTT against Ifi27l2b
Solution: upper level

Exercise: Tag the class for CCGCCAGGGAAACAAAUACTT against Zfp414
Solution: lower level

Exercise: Tag the class for GGAGAAGAAGCUGGACCAGTT against Atp5o
Solution: upper level

Exercise: Tag the class for GCAUGUUCGUGGAAGUACUTT against Got1l1
Solution: middle level

Exercise: Tag the class for AACUCCCUCCCUGUUGUAGTT against A4galt
Solution: middle level

Exercise: Tag the class for GGUGAUGCCUGUGAAGACATT against Il3ra
Solution: upper level

Exercise: Tag the class for GCUAUUCAAUCUGAGGAAATT against Olfr1278
Solution: upper level

====

assay: Components of the Cytosolic LPS Sensing Pathway: Gene Identification via Genome-wide siRNA Screen; settings: RAW264.7 macrophages, IL-1a HTRF, actives lie on both sides, screened at 100 nM (by protocol), cells primed 5 h with Pam3CSK4 first;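 also: robust z of the log signal after scaling to non-targeting control siRNA wells of the plate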
Out of some 53,000 sequences screened, about 3,700 (7%) were called active. This is one part of a sample in which actives are shown more often than they occur.
As shown below, each of these sequences has a reported z-score value.
Number only, please.

Below, each entry is followed by its recorded z-score result.
[[record]]
chain = "GGAAGAGCUGCUGAAUUCATT against Mthfd2"
recorded_measurement = 0.052

[[record]]
chain = "GCACUUGUGACUAUAAAGUTT against Celf2"
recorded_measurement = 0.262

[[record]]
chain = "GGAACUUCACUUUUAACACTT against Il33"
recorded_measurement = -0.534

[[record]]
chain = "CGUAAAUUCACCAAGGAGCTT against Slc19a1"
recorded_measurement = -0.805

[[record]]
chain = "GGUUACCCAACUUGAAGGATT against Parp16"
recorded_measurement = 1.37

[[record]]
chain = "CGAUCGUAUUCAAUGGAAATT against Rims2"
recorded_measurement = -0.998

[[record]]
chain = "GAUGGAUCGAACUCUGCACTT against Stard10"
recorded_measurement = -0.957

[[record]]
chain = "GGAAGACUUUGAAUACCACTT against Slc4a2"
recorded_measurement = 0.457


# z-score (sequence: CCUCAAUCAAAAUGUAAGUTT against Atp6v0a2 ) is 0.456

# z-score (sequence: CCCUGUAGAAAUUCAAGCCTT against Lyrm4 ) is 0.38

# z-score (sequence: UGCAAUCCGGAUCAAACGUTT against Cebpb ) is -2.03

# z-score (sequence: GCACAAUUAUGAGAGUGCATT against Grin1 ) is -0.91

# z-score (sequence: GGACAAGAGAACAACUAGUTT against Mrtfb ) is 0.0162

# z-score (sequence: GGACACCACCAAUCUUGACTT against Arsg ) is -1.57

# z-score (sequence: CCGACAUCCUUGAUACGUUTT against Vps35l ) is -2.12

# z-score (sequence: CGCAUACAUCAGGUCACUATT against Katnb1 ) is -0.74

# z-score (sequence: GGAUCUUUACUGCUUUGUGTT against Picalm ) is 2.42

# z-score (sequence: GCCUCAUUUGCUUCACUGUTT against Cd163l1 ) is 0.148

# z-score (sequence: GGUAGAGGUUAUAUAGGCATT against Ms4a6d ) is 0.282
